viability at 28.5 h, 10 µM listing for selected molecules.
experiment: in vitro; conditions: human, hela cells, % viability
All answers are understood in %, so give the number only.

Example entries and their recorded answers appear below.
viability at 28.5 h, 10 µM reading for CC(=O)NC(NC(=S)Nc1sc2c(c1C#N)CCCC2)C(Cl)(Cl)Cl (stereo not shown) : 99.2

Per the record, CC(C)[C@H]1CN(Cc2ccco2)CCN1Cc1ccccn1 has viability at 28.5 h, 10 µM of 112

Item: Cc1nc([N+](=O)[O-])c(C(=O)OCc2ccccc2C#N)n1C | viability at 28.5 h, 10 µM: 82.1

Entry O=C(Nc1cccc(CCc2nc3ccccc3[nH]2)c1)c1ccc(Cn2cncn2)cc1 — recorded viability at 28.5 h, 10 µM = 89.1

According to the records, this molecule Cc1cc(OCc2nnc(SCC(=O)N3CCN(c4ccccc4)CC3)n2C)ccc1Cl displays viability at 28.5 h, 10 µM of 104

The recorded viability at 28.5 h, 10 µM for Cc1nc2n(/N=C/c3ccc([N+](=O)[O-])cc3)c3ccccc3n2c1C#N is 88.4

Record summary for COc1cccc(-c2nccc3ccn(CC(=O)N4CC=CCC4)c23)c1 : reported viability at 28.5 h, 10 µM = 104

According to the records, this molecule CCCCOc1ccc(-c2nc(SCC(=O)O)c3c4c(sc3n2)COC(C)(C)C4)cc1 displays viability at 28.5 h, 10 µM of 99.1

Then there is this molecule:
Short answer for CCN1CCN(c2ccc(NC(=S)NC(=O)c3ccccc3Br)cc2)CC1 : viability at 28.5 h, 10 µM was 102
